# systemUnderTest: single-chain tethered dimer of HIV protease (Human immunodeficiency virus 1)
# experimentalDetails: biochemical
# Assay type: biochemical
pKi: −log10 of the molar value.

molecule: CC(C)N1C(=O)N(Cc2ccccn2)C(Cc2ccccc2)C(O)C(O)C1Cc1ccccc1 (centres unmarked)
pKi: 6.00 to 8.00

molecule: O=C1N(Cc2ccc(OCc3ccccc3)cc2)C(Cc2ccccc2)C(O)C(O)C(Cc2ccccc2)N1Cc1ccc(OCc2ccccc2)cc1 (centres unmarked)
pKi: < 6.00

molecule: O=C1N(Cc2cccc(Br)c2)C(Cc2ccccc2)C(O)C(O)C(Cc2ccccc2)N1Cc1cccc(Br)c1 (centres unmarked)
pKi: > 8.00

molecule: O=C1NC(Cc2ccccc2)C(O)C(O)C(Cc2ccccc2)N1Cc1cccc([N+](=O)[O-])c1 (centres unmarked)
pKi: > 8.00

molecule: O=C1N(Cc2ccncc2)C(Cc2ccccc2)C(O)C(O)C(Cc2ccccc2)N1CC1CC1 (centres unmarked)
pKi: > 8.00

molecule: O=C1N(Cc2ccc3ccccc3c2)C(Cc2ccccc2)C(O)C(O)C(Cc2ccccc2)N1Cc1ccccn1 (centres unmarked)
pKi: 6.00 to 8.00

molecule: C=COCCN1C(=O)N(CCOC=C)C(Cc2ccccc2)C(O)C(O)C1Cc1ccccc1 (centres unmarked)
pKi: 6.00 to 8.00

molecule: CN(C)CCN1C(=O)N(CCN(C)C)C(Cc2ccccc2)C(O)C(O)C1Cc1ccccc1 (centres unmarked)
pKi: < 6.00

// data source = patent USRE37781E1
